System: Stylophora pistillata
method_summary: Activation of Stylophora pistillata carbonic anhydrase STPCA by stopped flow CO2 hydration assay
quantity_measured: KA

Here are 3 molecules together with their reported answers.
[
  {
    "compound": "N[C@@H](Cc1c[nH]c2ccccc12)C(=O)O",
    "KA": "3.21 µM"
  },
  {
    "compound": "NCc1ccccn1",
    "KA": "126 µM"
  },
  {
    "compound": "Nc1ccc(C[C@H](N)C(=O)O)cc1",
    "KA": "10.1 µM"
  }
]

Would you kindly share the measured KA for NCCc1ccccn1 ? 107 µM
